Target: T1, hRET.mmh (human, UniProt P07949 29-635, biotinylated in the ELISA of Example 4 (biot-hRET.mmh); not in the SPR of Example 3)
T1 construct: also called biot-hRET.mmh; soluble monomeric human RET
Test: SPR Biacore T200, mAb capture, 25 C
Experimental: Binding affinities and kinetic constants of human anti-RET antibodies were determined by surface plasmon resonance (Biacore T200) at […] (Tables 2-3). […] Binding equilibrium dissociation constants (KD) and dissociative half-lives (t_{1/2}) were calculated from the kinetic rate constants as: KD [M]=kd/kₐ; and t_{1/2}(min)=(ln2/(60*kd). Calculations were performed using BiacoreT200 evaluation software v1.0.
pKd: −log10 of the molar value.
pKd below 9 gives Not fulfilled; pKd at or above it gives Fulfilled.

Example entries and their recorded answers appear below.
- binder: "H4H8067P (antibody, human IgG4, V domains shown, human IgG4 Fc (H4H prefix)) VH: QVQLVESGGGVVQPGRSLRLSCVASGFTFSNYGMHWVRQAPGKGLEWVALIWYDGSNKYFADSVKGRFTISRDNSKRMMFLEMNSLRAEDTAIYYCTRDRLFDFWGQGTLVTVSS VL: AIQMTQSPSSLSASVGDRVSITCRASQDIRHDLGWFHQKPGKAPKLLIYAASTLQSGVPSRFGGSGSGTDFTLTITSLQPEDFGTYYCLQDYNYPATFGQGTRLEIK"
  group: "Not fulfilled"
- binder: "H4H8085P (antibody, human IgG4, V domains shown, human IgG4 Fc (H4H prefix)) VH: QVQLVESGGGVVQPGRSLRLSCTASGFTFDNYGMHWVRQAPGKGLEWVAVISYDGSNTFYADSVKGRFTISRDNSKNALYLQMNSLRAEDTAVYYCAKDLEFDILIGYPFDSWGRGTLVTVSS VL: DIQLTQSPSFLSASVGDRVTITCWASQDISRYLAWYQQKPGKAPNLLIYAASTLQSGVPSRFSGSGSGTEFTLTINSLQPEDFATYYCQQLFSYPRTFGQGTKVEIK"
  group: "Not fulfilled"
- binder: "H4H8084P (antibody, human IgG4, V domains shown, human IgG4 Fc (H4H prefix)) VH: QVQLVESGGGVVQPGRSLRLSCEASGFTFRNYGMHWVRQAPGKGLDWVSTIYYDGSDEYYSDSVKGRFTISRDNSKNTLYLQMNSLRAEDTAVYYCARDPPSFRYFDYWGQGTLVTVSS VL: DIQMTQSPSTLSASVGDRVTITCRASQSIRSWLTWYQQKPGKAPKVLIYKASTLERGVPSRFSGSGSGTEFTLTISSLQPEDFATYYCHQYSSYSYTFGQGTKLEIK"
  group: "Fulfilled"
- binder: "H4H8056P (antibody, human IgG4, V domains shown, human IgG4 Fc (H4H prefix)) VH: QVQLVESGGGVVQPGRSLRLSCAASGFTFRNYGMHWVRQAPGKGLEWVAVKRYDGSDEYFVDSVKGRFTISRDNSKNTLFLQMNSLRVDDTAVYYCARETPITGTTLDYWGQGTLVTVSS VL: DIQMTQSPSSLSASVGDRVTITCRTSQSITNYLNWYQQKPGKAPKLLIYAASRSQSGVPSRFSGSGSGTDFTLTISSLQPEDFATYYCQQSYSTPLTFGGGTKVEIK"
  group: "Not fulfilled"
- binder: "H4H8087P (antibody, human IgG4, V domains shown, human IgG4 Fc (H4H prefix)) VH: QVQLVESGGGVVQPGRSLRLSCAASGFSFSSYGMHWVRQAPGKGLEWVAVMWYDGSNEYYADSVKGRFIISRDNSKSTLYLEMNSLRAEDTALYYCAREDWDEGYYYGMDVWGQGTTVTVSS VL: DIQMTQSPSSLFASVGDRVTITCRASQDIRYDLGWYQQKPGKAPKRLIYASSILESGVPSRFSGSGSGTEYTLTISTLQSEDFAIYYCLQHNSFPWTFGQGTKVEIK"
  group: "Fulfilled"

Answer whether pKd of H4H8080P (antibody, human IgG4, V domains shown, human IgG4 Fc (H4H prefix)) VH: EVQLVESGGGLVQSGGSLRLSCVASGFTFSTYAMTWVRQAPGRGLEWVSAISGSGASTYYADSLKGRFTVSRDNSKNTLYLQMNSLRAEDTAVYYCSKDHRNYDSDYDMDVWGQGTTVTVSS VL: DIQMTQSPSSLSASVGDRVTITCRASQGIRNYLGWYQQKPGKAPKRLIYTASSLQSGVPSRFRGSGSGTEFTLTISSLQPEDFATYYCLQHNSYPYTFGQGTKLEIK is greater than or equal to 9.
Not fulfilled
